The measurements presented in this section are drawn from patent US20140205597A1.

# study.target: serum sample IHUS#B09032311A1
# test.details: ECL displacement assay, variant competes with tagged SEQ ID NO:1
parameter: ECLU confirmatory assay (ECLU)

>>> recorded_result("Example 1C: wildtype VHH (SEQ ID NO: 23) (VHH) VHH: EVQLVESGGGLVQAGGSLRLSCAASGRTFNNYAMGWFRRAPGKEREFVAAITRSGVRSGVSAIYGDSVKDRFTISRDNAKNTLYLQMNSLKPEDTAVYTCAASAIGSGALRRFEYDYSGQGTQVTVSS")
60
>>> recorded_result("Example 1C: (A14P, K83R, Q108L) (SEQ ID NO: 27) (VHH) VHH: EVQLVESGGGLVQPGGSLRLSCAASGRTFNNYAMGWFRRAPGKEREFVAAITRSGVRSGVSAIYGDSVKDRFTISRDNAKNTLYLQMNSLRPEDTAVYTCAASAIGSGALRRFEYDYSGQGTLVTVSS")
57
>>> recorded_result("Example 1C: (A14P, R39Q, K83R, T91Y, Q108L) (SEQ ID NO: 28) (VHH) VHH: EVQLVESGGGLVQPGGSLRLSCAASGRTFNNYAMGWFRQAPGKEREFVAAITRSGVRSGVSAIYGDSVKDRFTISRDNAKNTLYLQMNSLRPEDTAVYYCAASAIGSGALRRFEYDYSGQGTLVTVSS")
58
>>> recorded_result("Example 1C: (K83R) (SEQ ID NO: 25) (VHH) VHH: EVQLVESGGGLVQAGGSLRLSCAASGRTFNNYAMGWFRRAPGKEREFVAAITRSGVRSGVSAIYGDSVKDRFTISRDNAKNTLYLQMNSLRPEDTAVYTCAASAIGSGALRRFEYDYSGQGTQVTVSS")
62
>>> recorded_result("Example 1C: (A14P) (SEQ ID NO: 24) (VHH) VHH: EVQLVESGGGLVQPGGSLRLSCAASGRTFNNYAMGWFRRAPGKEREFVAAITRSGVRSGVSAIYGDSVKDRFTISRDNAKNTLYLQMNSLKPEDTAVYTCAASAIGSGALRRFEYDYSGQGTQVTVSS")
56
>>> recorded_result("Example 1C: (Q108L) (SEQ ID NO: 26) (VHH) VHH: EVQLVESGGGLVQAGGSLRLSCAASGRTFNNYAMGWFRRAPGKEREFVAAITRSGVRSGVSAIYGDSVKDRFTISRDNAKNTLYLQMNSLKPEDTAVYTCAASAIGSGALRRFEYDYSGQGTLVTVSS")
59
